This collection of values is drawn from PubChem BioAssay AID2521.

Target Entity: Apelin receptor (Homo sapiens) (UniProt P35414)
Sequence (P35414 whole entry, looked up): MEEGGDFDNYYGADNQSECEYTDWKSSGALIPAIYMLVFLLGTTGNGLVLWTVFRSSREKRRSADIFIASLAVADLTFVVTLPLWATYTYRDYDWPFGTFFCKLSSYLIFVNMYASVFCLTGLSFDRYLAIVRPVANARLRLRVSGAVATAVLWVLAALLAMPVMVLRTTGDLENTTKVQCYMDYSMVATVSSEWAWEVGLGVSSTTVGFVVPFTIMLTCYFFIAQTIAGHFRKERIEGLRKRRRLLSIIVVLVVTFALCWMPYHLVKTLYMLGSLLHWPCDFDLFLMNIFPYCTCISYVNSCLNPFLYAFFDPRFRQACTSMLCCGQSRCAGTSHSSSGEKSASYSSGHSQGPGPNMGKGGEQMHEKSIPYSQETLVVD
Assay Protocol: antagonists of human apelin receptor APJ, primary screen, CHO-K1 cells, beta-arrestin complementation, luminescence (AID 2521);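 note: cells challenged with 10 nM apelin-13 agonist together with compound; plate controls were apelin-13 plus DMSO wells for no effect and DMSO wells lacking apelin-13 for full effect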
Experimental Conditions: at 20 µM, active compounds read high
Among all 330,000 compounds or so, about 1,100 (0.33%) were called active. The list comes from a sample in which actives are over-represented; it also holds close analogues and randomly drawn compounds.
Reported inhibition values follow for various molecules
Reply numerically in %, unit not repeated.

CCOC(=O)[C@H]1CCC[C@@H](NS(=O)(=O)c2ccc(NC(C)=O)cc2)C1 | 6.91
CN1CCN(/N=C2/C(=O)Nc3ccc([N+](=O)[O-])cc32)CC1 | 2.6
COC(=O)Cc1ccc(OC(=O)C2CCN(S(=O)(=O)c3ccc(OC)c(OC)c3)CC2)cc1 | 11.3

Form field inhibition, entry CNC(=O)Nc1cc(C(C)(C)C)no1 : 8.23

Form field inhibition, entry O=C(NC(=S)Nc1ccc(Cl)c(C(=O)O)c1)c1cncc(Br)c1 : 35.2

====

Target Entity: Apelin receptor (Homo sapiens) (UniProt P35414)
Assay Protocol: antagonists of human apelin receptor APJ, primary screen, CHO-K1 cells, beta-arrestin complementation, luminescence (AID 2521)
Experimental Conditions: at 20 µM, active compounds read high
Among all 330,000 compounds or so, about 1,100 (0.33%) were called active. This is one part of a sample in which actives are shown more often than they occur.
Assay Readout: inhibition (%)
Reply numerically in %, unit not repeated.

CN(C)S(=O)(=O)c1cccc(NC(=S)NCc2ccc3c(c2)OCO3)c1 | 3.11

Form field inhibition, entry N#CCCN(CCC#N)c1nnc(-c2ccccc2)s1 : 1.67

Form field inhibition, entry COc1cccc(NC(=O)C(=O)c2cn(CC(=O)N3CCOCC3)c3ccccc23)c1 : -7

Form field inhibition, entry Cc1ccc(/C=N/NC(=S)Nc2cccc(S(=O)(=O)N(C)C)c2)o1 : -8.56

Form field inhibition, entry Cc1cc(/C=N/NC(=O)CC2(C)OCCO2)c(C)n1-c1ccc(Cl)c(Cl)c1 : -22.8

====

Target Entity: Apelin receptor (Homo sapiens)
Assay Protocol: antagonists of human apelin receptor APJ, primary screen, CHO-K1 cells, beta-arrestin complementation, luminescence (AID 2521)
Experimental Conditions: at 20 µM
The whole screen tested about 330,000 compounds, of which about 1,100 (0.33%) were called active.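 How the source made its calls: active means inhibition above about 40% at 20 µM (limit read from the data); inactive means the rest.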 Shown is part of a subset that was picked to be rich in actives.
API: response.call in active, inactive

Record excerpt, results attached:
CN=C1C=C/C(=N/N=c2\ccn(O)cc2C)C=C1C | active
S=C(NNC(=S)NC1CC2C=CC1C2)NC1CC2C=CC1C2 (configuration not stated) | inactive
COc1ccc(CNc2cc(C)cc(C)c2)cc1OC | inactive

Ask: Returns: the outcome recorded for COC(=O)c1ccccc1NC(=O)C1CCN(C(=O)N2CCOc3ccccc32)CC1 in this assay.
Result: inactive

Ask: Returns: the outcome recorded for O=C(NNC(=S)NC1CC2CCC1C2)c1ccc(Cl)cc1 (configuration not stated) in this assay.
Result: inactive

Ask: Returns: the outcome recorded for O=[N+]([O-])c1ccc(N(CCO)Cc2ccccc2)c([N+](=O)[O-])c1 in this assay.
Result: inactive

Ask: Returns: the outcome recorded for O=S(=O)(c1ccc(NC(=S)NN=C(C2CC2)C2CC2)cc1)N1CCOCC1 in this assay.
Result: inactive

====

Reported inhibition values follow for various molecules
Target Entity: Apelin receptor (Homo sapiens) (UniProt P35414)
Assay Protocol: antagonists of human apelin receptor APJ, primary screen, CHO-K1 cells, beta-arrestin complementation, luminescence (AID 2521);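 note: cells challenged with 10 nM apelin-13 agonist together with compound; plate controls were apelin-13 plus DMSO wells for no effect and DMSO wells lacking apelin-13 for full effect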
Experimental Conditions: at 20 µM, active compounds read high
Out of some 330,000 compounds screened, about 1,100 (0.33%) were called active. For the sample, actives were picked, then their nearest neighbours and some compounds at random.
Reply numerically in %, unit not repeated.

CC(=O)Nc1ccc(NC(=O)c2sc3nc4c(c(-c5ccc(C)cc5)c3c2N)CCC4)cc1 | 41.5
CC(C)c1ccc(NS(=O)(=O)c2cn(C)c(=O)n(C)c2=O)cc1 | 7.41
CS(=O)(=O)N1CCc2cc(C(=O)Nc3ccccc3)ccc21 | 6.74

Form field inhibition, entry CCCCC(=O)Nc1c2c(nn1-c1ccc([N+](=O)[O-])cc1)CS(=O)(=O)C2 : 9.67

Form field inhibition, entry O=C(Nc1ccc([N+](=O)[O-])cc1)C1(c2ccccc2)CCOCC1 : 4.46

====

Target Entity: Apelin receptor (Homo sapiens) (UniProt P35414)
Assay Protocol: antagonists of human apelin receptor APJ, primary screen, CHO-K1 cells, beta-arrestin complementation, luminescence (AID 2521);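 note: cells challenged with 10 nM apelin-13 agonist together with compound; plate controls were apelin-13 plus DMSO wells for no effect and DMSO wells lacking apelin-13 for full effect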
Experimental Conditions: at 20 µM
Screen size: about 330,000 compounds; about 1,100 (0.33%) were called active.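 How the source made its calls: active means inhibition above about 40% at 20 µM (limit read from the data); inactive means the rest.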 The sample as a whole holds a higher share of actives than the screen did.
API: response.call in True for active, False for inactive

O=C1Nc2ccc([N+](=O)[O-])cc2C1=Nc1cccc(CO)c1 | True

Ask: Returns: the outcome recorded for Cc1nc(CN2CCN(C(=O)CCc3nnc(Cc4c[nH]c5ccccc45)o3)CC2)cs1 in this assay.
Result: False

====

Target Entity: Apelin receptor (Homo sapiens) (UniProt P35414)
Assay Protocol: antagonists of human apelin receptor APJ, primary screen, CHO-K1 cells, beta-arrestin complementation, luminescence (AID 2521);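 note: cells challenged with 10 nM apelin-13 agonist together with compound; plate controls were apelin-13 plus DMSO wells for no effect and DMSO wells lacking apelin-13 for full effect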
Experimental Conditions: at 20 µM
About 1,100 (0.33%) of roughly 330,000 compounds were called active.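 Rule for the calls: active = inhibition above about 40% at 20 µM (limit read from the data); inactive = the rest.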 The sample as a whole holds a higher share of actives than the screen did.
API: response.call in yes (1) for active, no (0) for inactive

Cc1cccc(NC(=O)c2sc3nc(N4CCOCC4)c4c(c3c2N)CCCC4)c1 | no (0)
COc1cc(NS(=O)(=O)c2ccc3ccccc3c2)c2ncccc2c1 | yes (1)

Let us examine a further case.
Ask: Returns: the outcome recorded for O=C(N=C1SC2CS(=O)(=O)CC2N1c1ccccc1)c1ccccc1 (stereo not drawn) in this assay.
Result: no (0)
